# measurementTarget: T1, 4H1449-bN
# T1 chain: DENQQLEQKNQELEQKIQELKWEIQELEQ
# procedureText: two-hybrid library CCNG1;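 also: natural log of median RNA to DNA barcode read ratio; higher means stronger binding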
propertyLabel: interaction score

Consider the worked cases shown below.
{"binder": "DENQQLEQKIQELKQEIQELEWENQELKQ [4H1348-bN]", "interaction score": -0.5}
{"binder": "DENQQLEQKIQELKQENQELKWKIQELEQ [4H1373-bN]", "interaction score": -0.869}
{"binder": "DENQQLEQKIQELEQKNQELKWEIQELKQ [4H1338-bN]", "interaction score": -0.847}
{"binder": "DENQQLEQKNQELEQKIQELKWEIQELEQ [4H1449-bN]", "interaction score": -0.847}
{"binder": "DENQQLEQENQELKQEIQELEWKIQELKQ [4H1222-bN]", "interaction score": -0.277}
{"binder": "DENQQLEQKIQELKQEIQELKWKNQELEQ [4H1359-bN]", "interaction score": -0.317}

Here's the next entry for you.
For the binder shown here, DENQQLEQKIQELKQKNQELEWEIQELEQ [4H1393-bN] , give the reported interaction score. -0.996

Source of measurements: paper PMC10397247
